Where these numbers come from: patent US20110300156A1

I'd appreciate it if you could supply % max inhibition of FVIIa induced ERK phosphorylation (A431) values for the items below.
- Target System: human tissue factor (TF), membrane-bound on cells (human, UniProt P13726 33-295)
- Assay Method Text: cell-based or functional assay
Kindly answer with a numeric value in %, unit omitted.

QUERY: Which measured % max inhibition of FVIIa induced ERK phosphorylation (A431) value corresponds to anti-TF HuMab 013 (antibody, V domains shown, Human monoclonal antibody from HuMab mice; also called HuMab-TF-13) VH: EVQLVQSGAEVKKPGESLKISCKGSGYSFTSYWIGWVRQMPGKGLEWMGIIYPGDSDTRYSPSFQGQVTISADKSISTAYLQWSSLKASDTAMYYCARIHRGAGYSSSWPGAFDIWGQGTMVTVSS VL: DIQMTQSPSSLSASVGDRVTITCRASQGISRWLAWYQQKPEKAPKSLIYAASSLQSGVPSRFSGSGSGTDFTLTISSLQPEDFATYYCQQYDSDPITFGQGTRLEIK ?
RESULT: 26

QUERY: Which measured % max inhibition of FVIIa induced ERK phosphorylation (A431) value corresponds to anti-TF HuMab 025 (antibody, V domains shown, Human monoclonal antibody from HuMab mice) VH: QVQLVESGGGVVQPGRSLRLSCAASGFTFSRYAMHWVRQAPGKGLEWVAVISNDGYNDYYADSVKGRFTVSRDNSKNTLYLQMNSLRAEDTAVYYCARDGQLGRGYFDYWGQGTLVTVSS VL: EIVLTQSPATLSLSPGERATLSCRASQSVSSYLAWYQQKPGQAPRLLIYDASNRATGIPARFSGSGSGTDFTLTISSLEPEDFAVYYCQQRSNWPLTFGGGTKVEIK ?
RESULT: 66
